Measured inhibition, listed per entry.
molecular target: Muscarinic acetylcholine receptor M1 (Homo sapiens) (UniProt P11229); assay: Ability to displace [3H]N-methylscopolamine binding to M1 human recombinant muscarinic receptor in CHO cells at concentration 10 uM; format: cell-based
Use % as the unit, but write only the number.

# annotated cases, reported inhibition shown
{"Compound": "COc1ccc(-c2cc(/C=C3\\CN4CCC3CC4)on2)cc1OC", "inhibition / %": 22}
{"Compound": "CC(C)(C)OC(=O)Nc1ccc(-c2cc(/C=C3\\CN4CCC3CC4)on2)cc1", "inhibition / %": 59}

query: What measured inhibition goes with C(=C1\CN2CCC1CC2)/c1cc(-c2ccccc2)no1 ?
result: 51

query: What measured inhibition goes with Cc1ccc(-c2cc(/C=C3\CN4CCC3CC4)on2)cc1 ?
result: 0

query: What measured inhibition goes with COc1ccc(-c2cc(/C=C3\CN4CCC3C4)on2)cc1 (stereo unspecified) ?
result: 34

query: What measured inhibition goes with COc1ccc(COc2ccc(-c3cc(/C=C4\CN5CCC4CC5)on3)cc2OCc2ccc(OC)cc2)cc1 ?
result: 100

query: What measured inhibition goes with COc1ccc(COc2ccc(-c3cc(/C=C4\CN5CCC4CC5)on3)cc2)cc1 ?
result: 64

query: What measured inhibition goes with Oc1ccc(-c2cc(/C=C3/CN4CCC3CC4)on2)cc1O ?
result: 59

---

target: Muscarinic acetylcholine receptor M3 (Homo sapiens); experiment: Ability to displace [3H]N-methylscopolamine binding to M3 human recombinant muscarinic receptor in CHO cells at concentration 10 uM; format: cell-based
Measured inhibition, listed per entry.
Respond with the figure and its unit, in that order.

{"Compound": "COc1ccc(-c2cc(/C=C3/CN4CCC3C4)on2)cc1 (stereo unspecified)", "Result Type": "inhibition", "Test Result": "0%"}

query: Fill in the recorded inhibition for this compound, with Muscarinic acetylcholine receptor M3 (Homo sapiens) as test system: Nc1ccc(-c2cc(/C=C3\CN4CCC3CC4)on2)cc1
result: 0%

query: Fill in the recorded inhibition for this compound, with Muscarinic acetylcholine receptor M3 (Homo sapiens) as test system: COc1ccc(-c2cc(/C=C3/CN4CCC3CC4)on2)cc1OC
result: 46%

query: Fill in the recorded inhibition for this compound, with Muscarinic acetylcholine receptor M3 (Homo sapiens) as test system: Cc1ccc(-c2cc(/C=C3\CN4CCC3CC4)on2)cc1
result: 0%

query: Fill in the recorded inhibition for this compound, with Muscarinic acetylcholine receptor M3 (Homo sapiens) as test system: Nc1ccc(-c2cc(/C=C3/CN4CCC3CC4)on2)cc1
result: 19%

query: Fill in the recorded inhibition for this compound, with Muscarinic acetylcholine receptor M3 (Homo sapiens) as test system: Oc1ccc(-c2cc(/C=C3\CN4CCC3C4)on2)cc1 (stereo unspecified)
result: 20%

query: Fill in the recorded inhibition for this compound, with Muscarinic acetylcholine receptor M3 (Homo sapiens) as test system: Oc1ccc(-c2cc(/C=C3/CN4CCC3CC4)on2)cc1
result: 14%

---

Biological target: UniProtKB P11229
Sequence (whole entry): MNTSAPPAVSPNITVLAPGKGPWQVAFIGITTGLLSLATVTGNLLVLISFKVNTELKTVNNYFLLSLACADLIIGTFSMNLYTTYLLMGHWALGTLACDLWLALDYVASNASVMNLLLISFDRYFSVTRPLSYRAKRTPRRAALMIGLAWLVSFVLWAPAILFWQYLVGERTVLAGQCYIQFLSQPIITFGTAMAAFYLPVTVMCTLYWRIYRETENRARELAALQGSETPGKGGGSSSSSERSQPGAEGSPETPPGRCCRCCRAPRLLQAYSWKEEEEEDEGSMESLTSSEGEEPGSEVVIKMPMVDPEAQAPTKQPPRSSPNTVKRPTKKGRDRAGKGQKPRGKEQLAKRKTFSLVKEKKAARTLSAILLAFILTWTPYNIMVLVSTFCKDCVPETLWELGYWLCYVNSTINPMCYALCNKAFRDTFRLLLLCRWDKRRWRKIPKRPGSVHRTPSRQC
Experiment: Ability to displace [3H]N-methylscopolamine binding to M1 human recombinant muscarinic receptor in CHO cells at concentration 10 uM
Type: cell-based
Measured inhibition, listed per entry.
Respond with the figure and its unit, in that order.

{"Compound": "COc1ccc(COc2ccc(-c3cc(/C=C4/CN5CCC4CC5)on3)cc2OCc2ccc(OC)cc2)cc1", "inhibition": "100%"}
{"Compound": "CC(C)(C)OC(=O)Nc1ccc(-c2cc(/C=C3\\CN4CCC3C4)on2)cc1 (stereo not drawn)", "inhibition": "53%"}

Let's switch to this compound now.
query: What measured inhibition goes with COc1ccc(COc2ccc(-c3cc(/C=C4/CN5CCC4C5)on3)cc2)cc1 (stereo not drawn) ?
result: 66%

---

target: Muscarinic acetylcholine receptor M3 (Homo sapiens) (UniProt P20309); assay: Ability to displace [3H]N-methylscopolamine binding to M3 human recombinant muscarinic receptor in CHO cells at concentration 10 uM; type: cell-based
Sequence (P20309 whole entry, looked up): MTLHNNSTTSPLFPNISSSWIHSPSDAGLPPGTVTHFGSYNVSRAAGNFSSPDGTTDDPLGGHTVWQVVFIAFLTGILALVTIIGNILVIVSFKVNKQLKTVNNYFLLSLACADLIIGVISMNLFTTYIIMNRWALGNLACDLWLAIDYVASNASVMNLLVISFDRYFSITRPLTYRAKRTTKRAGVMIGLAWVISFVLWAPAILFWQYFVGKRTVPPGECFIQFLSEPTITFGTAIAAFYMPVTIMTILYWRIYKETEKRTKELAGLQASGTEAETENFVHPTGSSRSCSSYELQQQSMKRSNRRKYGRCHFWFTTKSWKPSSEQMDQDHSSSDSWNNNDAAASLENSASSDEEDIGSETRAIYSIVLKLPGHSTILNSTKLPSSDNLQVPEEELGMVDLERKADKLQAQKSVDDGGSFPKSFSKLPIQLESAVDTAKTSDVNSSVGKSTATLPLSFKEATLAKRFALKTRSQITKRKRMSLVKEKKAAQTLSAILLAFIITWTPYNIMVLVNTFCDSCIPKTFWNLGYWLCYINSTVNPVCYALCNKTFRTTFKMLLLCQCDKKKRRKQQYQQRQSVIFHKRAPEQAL
Measured inhibition, listed per entry.
Use % as the unit, but write only the number.

# annotated cases, reported inhibition shown
{"Chemical Smiles": "Oc1ccc(-c2cc(/C=C3/CN4CCC3CC4)on2)cc1O", "Result Type": "inhibition", "Test Result": 39}
{"Chemical Smiles": "CC(C)(C)OC(=O)Nc1ccc(-c2cc(/C=C3/CN4CCC3CC4)on2)cc1", "Result Type": "inhibition", "Test Result": 87}
{"Chemical Smiles": "C(=C1/CN2CCC1CC2)/c1cc(-c2ccccc2)no1", "Result Type": "inhibition", "Test Result": 17}

Let's switch to this compound now.
query: What measured inhibition goes with COc1ccc(-c2cc(/C=C3/CN4CCC3CC4)on2)cc1 ?
result: 63

meta.source: ChEMBL document CHEMBL1131993
